system: SNB-19 CNS; experiment: NCI tumour cell line growth inhibition, 48 h
quantity.kind: TGI

Example cases with answers are listed next.
COc1ccc(C(=C[N+](=O)[O-])c2ccc(OC)cc2)cc1; > 94.4 µM
COc1cc(/C=C2/SC(c3ccccc3)N(c3cccc(NC(C)=O)c3)C2=O)cc(OC)c1OC (centres undefined); > 100 µM
CCOC(=O)NC(=O)c1cn(CCCOC(=O)CCCCCCCCC(=O)OCCCn2cc(C(=O)NC(=O)OCC)c(=O)n(C)c2=O)c(=O)n(C)c1=O; > 100 µM
CCCc1nc(N)nc(C(=O)Nc2cccc(C(F)(F)F)c2)c1CC; > 100 µM
COc1cc(Nc2nc3ccccc3n3cccc23)cc(OC)c1OC; > 100 µM
CC(C)=CC(O)C(C(O)CCC1(C)OCCO1)S(=O)(=O)c1ccccc1 (centres undefined); > 100 µM
CC1(F)C=CC(=O)C=C1; > 100 µM
COc1cc(C(=O)c2c(-c3ccccc3)oc3c(OC)cccc23)cc(OC)c1O; > 100 µM
CC1=NCC[N+]1(CCc1ccccc1)Cc1ccccc1 (centres undefined); > 100 µM
CCn1c2ccccc2c2cc(/C=C(/C#N)C(N)=S)ccc21; > 75.6 µM

Lookup: Please report TGI for the following molecule: CCOC(=O)C1(Cc2ccc3c(c2)CCC3)Cc2cc3c(cc2C1=O)CCC3 (centres undefined)
Found: > 100 µM

Lookup: Please report TGI for the following molecule: `COc1ccc(-c2csc(-n3c(-c4ccccc4)nc4c(Br)cc(Br)cc4c3=O)n2)cc1`
Found: > 100 µM

---

tested on: MDA-MB-435
// allowed return values: active, inactive

Before answering, review these 5 worked examples.
Oc1ccc(Nc2nc3ccccc3c3occc23)cc1; inactive
Cc1ccc(/C(=N/NS(=O)(=O)c2ccc([N+](=O)[O-])cc2)Sc2cc(Cl)c(C)cc2S(N)(=O)=O)cc1; inactive
C=C1C(=O)O[C@H]2[C@H]1CC/C(CNC(=O)c1cccc3ccccc13)=C\CC[C@@]1(C)O[C@@H]21; inactive
COc1cc(C(=O)c2c(-c3ccccc3)oc3c(OC)cccc23)cc(OC)c1O; active
CN(C)c1ccc(Nc2ncnc3ccccc23)cc1; inactive

Lookup: Answer briefly: the call reported for COc1cccc2c1C(=O)c1c(O)c3c(c(O)c1C2=O)CC(O)(/C(C)=N/NC(=O)CCCCC(=O)N/N=C(\C)C1(O)Cc2c(O)c4c(c(O)c2C(OC2CC(N)C(O)C(C)O2)C1)C(=O)c1c(OC)cccc1C4=O)CC3OC1CC(N)C(O)C(C)O1 (configuration not stated) in this assay.
Found: active

Lookup: Answer briefly: the call reported for `Nc1ccccc1C#C/C=C\C#Cc1cnccn1` in this assay.
Found: inactive

Lookup: Answer briefly: the call reported for `Nc1n[n+](=O)c2ccccc2n1O` in this assay.
Found: inactive

Lookup: Answer briefly: the call reported for `N#Cc1c(-c2ccc(Cl)cc2)csc1NC(=O)Nc1ccc(Cl)c(C(F)(F)F)c1` in this assay.
Found: inactive

Lookup: Answer briefly: the call reported for CNC(=O)C(CCc1ccccc1)NC(=O)C(CC(=O)NO)CC(C)C (configuration not stated) in this assay.
Found: inactive

Lookup: Answer briefly: the call reported for `C[CH2][Sn]([CH2]C)([O]C(=O)c1cccc(OC)c1)[O][Sn]([CH2]C)([CH2]C)[O]C(=O)c1cccc(OC)c1` in this assay.
Found: inactive

Lookup: Answer briefly: the call reported for `CCn1c2ccccc2c2cc(/C=C(/C#N)C(N)=S)ccc21` in this assay.
Found: inactive

---

Some molecules, each annotated with its measured GI50.
tested on: SF-268 CNS; experiment: NCI tumour cell line growth inhibition, 48 h

Example cases with answers are listed next.
CC1(C)CCC2(CC1)N[C@@H](C(=O)N[C@@H]1CC[C@@H](C(N)=O)OC1)[C@H](c1ccnc(Cl)c1F)[C@]21C(=O)Nc2cc(Cl)ccc21; 3.5 µM
O=C(Nc1cccc(-n2ccc3c(NC(=O)c4ccccc4)nccc32)c1)Nc1ccc(Cl)c(C(F)(F)F)c1; 0.696 µM
CC(=O)[CH-]C(=O)c1ccccc1.CC(=O)[CH-]C(=O)c1ccccc1.CCN(CC)CC[O-].CCN(CC)CC[O-].Cl.[Hf+4]; > 100 µM
O=C1NC(=O)/C(=C/c2c(Cl)nc3sccn23)S1; > 57.1 µM
C=CCn1c(SCC(=O)Nc2ccc(C(=O)/C=C/c3cc(OC)c(OC)c(OC)c3)cc2)nnc1-c1ccc(Cl)cc1; 4.32 µM

Lookup: Report GI50 under test system SF-268 CNS for `O=C1c2ccccc2C(=O)c2c1c(=O)c(=O)c1ccccc1c(=O)n2Cc1ccccc1` .
Found: > 100 µM

Lookup: Report GI50 under test system SF-268 CNS for CNC(=O)C(CCc1ccccc1)NC(=O)C(CC(=O)NO)CC(C)C (stereo unspecified) .
Found: > 25 µM

Lookup: Report GI50 under test system SF-268 CNS for COC(=O)C1=C(OC(=O)c2ccccc2)C(C(=O)OC)[C@]2(O)[C@@H](C(=O)OC)C1CC(c1ccccc1OC)[C@@H]2C(=O)OC (stereo partly specified) .
Found: > 100 µM

Lookup: Report GI50 under test system SF-268 CNS for `O=C(Nc1ccc(-n2cc(-c3ccncc3)c(-c3ccc(O)c(Cl)c3)n2)cc1)c1cc(C(F)(F)F)cc(C(F)(F)F)c1` .
Found: 9.33 µM

Lookup: Report GI50 under test system SF-268 CNS for `O=C1C(Cl)=C(Nc2cccc(O)c2)C(=O)N1CCc1ccccc1` .
Found: 17 µM

Lookup: Report GI50 under test system SF-268 CNS for `COc1cc(/C=C/C(=O)Nc2ccc3c(c2)/C(=C\c2cccn2C)C(=O)N3)cc(OC)c1OC` .
Found: 8.19 µM

---

tested on: KM12 colon; experiment: NCI tumour cell line growth inhibition, 48 h; in the data active = GI50 below about 0.43 µM; inactive = the rest
// allowed return values: active, inactive

COc1cccc2c1C(=O)c1c(O)c3c(c(O)c1C2=O)CC(O)(/C(C)=N/NC(=O)CCCCC(=O)N/N=C(\C)C1(O)Cc2c(O)c4c(c(O)c2C(OC2CC(N)C(O)C(C)O2)C1)C(=O)c1c(OC)cccc1C4=O)CC3OC1CC(N)C(O)C(C)O1 (stereo not drawn); active
COc1cc(C(=O)c2c(-c3ccccc3)oc3c(OC)cccc23)cc(OC)c1O; inactive

Next, consider the following molecule.
Lookup: Answer briefly: the call reported for `CC1(C)CCC2(CC1)N[C@@H](C(=O)N[C@@H]1CC[C@@H](C(N)=O)OC1)[C@H](c1ccnc(Cl)c1F)[C@]21C(=O)Nc2cc(Cl)ccc21` in this assay.
Found: inactive

---

system: OVCAR-8 ovarian; assay: NCI tumour cell line growth inhibition, 48 h
Some molecules, each annotated with its measured TGI.

Example cases with answers are listed next.
C=CCSc1nc2c(N)ncnc2n1C1OC(CO)C(O)C1O (stereo not drawn); > 100 µM
COC(=O)[C@@H]1C[C@@]23CCCN4CC[C@@]5(c6cccc(OC)c6N(C=O)[C@]15CC2)[C@@H]43; > 100 µM

Now examine the next entry.
Lookup: Report TGI under test system OVCAR-8 ovarian for CCOP(=S)(OCC)Oc1ccc2c(c1)OC(=O)C1(Cl)C2(C)C2(Cl)C(=O)Oc3cc(OP(=S)(OCC)OCC)ccc3C12C (stereo not drawn) .
Found: 37.2 µM

---

test system: OVCAR-8 ovarian; assay: NCI tumour cell line growth inhibition, 48 h
quantity.kind: TGI

Example cases with answers are listed next.
CNC(=O)C(CCc1ccccc1)NC(=O)C(CC(=O)NO)CC(C)C (configuration not stated); > 25 µM
Nc1n[n+](=O)c2ccccc2n1O; > 100 µM
O=C(NCCOC(=O)OCCNC(=O)NC1CCCCC1)NC1CCCCC1; > 100 µM
CCCCC1CC(c2ccc(Cl)cc2)=NO1 (configuration not stated); > 100 µM
CCCc1nc(N)nc(C(=O)Nc2cccc(C(F)(F)F)c2)c1CC; > 100 µM

Lookup: Please report TGI for the following molecule: `CN(C)c1ccc(Nc2ncnc3ccccc23)cc1`
Found: > 100 µM

Lookup: Please report TGI for the following molecule: `COc1ncc(-c2ccc3nccc(C#CCCCCC(=O)O)c3c2)cc1NS(=O)(=O)c1ccc(F)cc1F`
Found: > 100 µM

Lookup: Please report TGI for the following molecule: `O=C1C=CC(=O)c2c(O)ccc(O)c21`
Found: 2.05 µM

---

system: HOP-92 NSCLC; experiment: NCI tumour cell line growth inhibition, 48 h
Some molecules, each annotated with its measured log10 of TGI.
Use the decimal logarithm of TGI (µM).

Example cases with answers are listed next.
CCCC(=O)N(C(=O)CCC)C1=C(Cl)C(=O)c2ccccc2C1=O; 1.65
O=C1NN=C2C=C(c3ccc(Cl)cc3)CC(c3cccc(Br)c3)C12 (stereo unspecified); 1.50
COc1cc(C(=O)c2c(-c3ccccc3)oc3c(OC)cccc23)cc(OC)c1O; 0.35
Cn1c(=O)n(CCCO)c(=O)c2c1nc(Oc1cccc(OC(F)(F)F)c1)n2Cc1ccc(Cl)cc1; 1.39

Now examine the next entry.
Lookup: Report log10 of TGI under test system HOP-92 NSCLC for `Cc1nc2c(n1CC(C)C)C(=O)c1ccccc1C2=O` .
Found: 1.82
